Measured MIC, listed per entry for reference.
test system: N. gonorrhoeae WHO X; assay: Liquid broth MIC in Fastidious broth; conditions: Neisseria gonorrhoeae, read-out: Minimum Inhibitory Concentration (MIC), N. gonorrhoeae WHO X
measure name: MIC

compound | assay system | observed measurement
O=C(CN1CCN(C(=O)NC(C(=O)N[C@H]2Cc3ccc(F)c(C(=O)O)c3OB2O)c2cc(F)c(O)c(O)c2Cl)C(=O)C1=O)Nc1nccs1 (stereo partly drawn) | N. gonorrhoeae WHO X | > 64 µg/mL
O=C(NCCN1CCN(C(=O)NC(C(=O)N[C@H]2Cc3ccc(F)c(C(=O)O)c3OB2O)c2cc(F)c(O)c(O)c2Cl)C(=O)C1=O)Nc1cccc(O)c1 (stereo partly drawn) | N. gonorrhoeae WHO X | > 64 µg/mL
CCN1CCN(C(=O)N[C@@H](C(=O)N[C@H]2Cc3cccc(C(=O)O)c3OB2O)c2ccc(P(C)(=O)O)cc2)C(=O)C1=O (single isomer, unassigned) | N. gonorrhoeae WHO X | 4 to 8 µg/mL
CC(=O)NC(C(=O)N[C@H]1Cc2cccc(C(=O)O)c2OB1O)c1ccc(P(=O)(O)O)cc1 (stereo partly drawn) | N. gonorrhoeae WHO X | 16 to 32 µg/mL
O=C(NC(C(=O)N[C@H]1Cc2cccc(C(=O)O)c2OB1O)c1ccc(P(=O)(O)O)cc1)c1ccc(Cl)cn1 (stereo partly drawn) | N. gonorrhoeae WHO X | 4 to 8 µg/mL
CCN1CCN(C(=O)N[C@@H](C(=O)N[C@H]2Cc3cccc(C(=O)O)c3OB2O)c2ccc(P(=O)(O)O)c(F)c2)C(=O)C1=O (single isomer, unassigned) | N. gonorrhoeae WHO X | < 1 µg/mL

###

Measured pEC50, listed per entry for reference.
biological target: A. baumannii PBP1a (Acinetobacter baumannii, UniProt A0ABX6CK30); assay: Bocillin-FL competition binding via gel filtration, A. baumannii PBP1a; conditions: competition binding assay using Bocillin-FL via gel filtration; read-out: A. baumannii PBP1a Potency
Sequence (A0ABX6CK30 1-851): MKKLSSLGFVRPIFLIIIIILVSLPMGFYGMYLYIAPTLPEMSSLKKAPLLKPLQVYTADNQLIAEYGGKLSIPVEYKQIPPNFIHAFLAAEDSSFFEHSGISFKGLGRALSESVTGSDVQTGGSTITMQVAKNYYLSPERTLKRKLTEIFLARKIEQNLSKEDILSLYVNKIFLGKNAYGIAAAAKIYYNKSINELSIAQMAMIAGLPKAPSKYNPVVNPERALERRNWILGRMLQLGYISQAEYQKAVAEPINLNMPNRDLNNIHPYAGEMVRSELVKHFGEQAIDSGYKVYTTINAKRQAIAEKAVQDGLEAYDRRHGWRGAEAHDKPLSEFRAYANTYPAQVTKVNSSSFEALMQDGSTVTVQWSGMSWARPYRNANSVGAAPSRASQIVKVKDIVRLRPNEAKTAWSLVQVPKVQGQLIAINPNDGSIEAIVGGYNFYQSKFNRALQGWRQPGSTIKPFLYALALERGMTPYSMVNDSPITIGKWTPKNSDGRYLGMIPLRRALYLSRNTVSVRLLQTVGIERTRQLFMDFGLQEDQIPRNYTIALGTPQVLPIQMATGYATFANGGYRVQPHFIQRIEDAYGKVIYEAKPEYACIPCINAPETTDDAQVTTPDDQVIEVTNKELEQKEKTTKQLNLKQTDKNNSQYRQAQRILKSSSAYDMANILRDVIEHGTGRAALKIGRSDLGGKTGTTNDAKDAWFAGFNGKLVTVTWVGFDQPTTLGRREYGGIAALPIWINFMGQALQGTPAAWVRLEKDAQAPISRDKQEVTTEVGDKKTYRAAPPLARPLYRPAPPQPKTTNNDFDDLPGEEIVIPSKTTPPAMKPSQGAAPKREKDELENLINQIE
pEC50: −log10 of the molar value.

compound | pEC50
O=C(O)c1c(F)ccc2c1OB(O)[C@@H](NC(=O)[C@H](NC(=O)N1CCN(C3CCN(Cc4ccncc4)CC3)C1=O)c1cc(F)c(O)c(O)c1Cl)C2 | > 5.00
O=C(CN1CCN(C(=O)NC(C(=O)N[C@H]2Cc3ccc(F)c(C(=O)O)c3OB2O)c2cc(F)c(O)c(O)c2Cl)C(=O)C1=O)Nc1ccc(O)cc1 (some centres unmarked) | 4.30 to 5.00
O=C(NCCCN1CCN(C(=O)NC(C(=O)N[C@H]2Cc3ccc(F)c(C(=O)O)c3OB2O)c2cc(F)c(O)c(O)c2Cl)C(=O)C1=O)c1cc(F)ncc1F (mixture of isomers) | 4.30 to 5.00
O=C(O)c1c(F)ccc2c1OB(O)[C@@H](NC(=O)C(NC(=O)N1CCN(CC3CCN(C(=O)c4cccc(O)c4)CC3)C(=O)C1=O)c1cc(F)c(O)c(O)c1Cl)C2 (some centres unmarked) | 4.30 to 5.00
NCc1cc(O)cc(C(=O)N2CCC(N3CCN(C(=O)N[C@@H](C(=O)N[C@H]4Cc5ccc(F)c(C(=O)O)c5OB4O)c4cc(F)c(O)c(O)c4Cl)C3=O)CC2)c1 (single isomer, unassigned) | 4.30 to 5.00
O=C(O)c1c(F)ccc2c1OB(O)[C@@H](NC(=O)C(NC(=O)N1CCN(C3CCN(C(=O)c4cncc(O)c4)CC3)C(=O)C1=O)c1cc(F)c(O)c(O)c1Cl)C2 (some centres unmarked) | 4.30 to 5.00
O=C(NCCCN1CCN(C(=O)NC(C(=O)N[C@H]2Cc3ccc(F)c(C(=O)O)c3OB2O)c2cc(F)c(O)c(O)c2Cl)C(=O)C1=O)c1c(F)cncc1F (some centres unmarked) | > 5.00
O=C(O)c1c(F)ccc2c1OB(O)[C@@H](NC(=O)C(NC(=O)N1CCN(CC3CCN(C(=O)Nc4cccc(O)c4)CC3)C(=O)C1=O)c1cc(F)c(O)c(O)c1Cl)C2 (some centres unmarked) | 4.30 to 5.00
O=C(NCCCN1CCN(C(=O)N[C@@H](C(=O)N[C@H]2Cc3ccc(F)c(C(=O)O)c3OB2O)c2cc(F)c(O)c(O)c2Cl)C1=O)c1cccc(O)c1 | 4.30 to 5.00
O=C(NCCCN1CCN(C(=O)NC(C(=O)N[C@H]2Cc3ccc(F)c(C(=O)O)c3OB2O)c2cc(F)c(O)c(O)c2Cl)C(=O)C1=O)c1cc(O)c(F)c(O)c1F (some centres unmarked) | > 5.00
O=C(O)c1c(F)ccc2c1OB(O)[C@@H](NC(=O)C(NC(=O)N1CCN(C3CCN(S(=O)(=O)c4cccc(O)c4)CC3)C(=O)C1=O)c1cc(F)c(O)c(O)c1Cl)C2 (some centres unmarked) | > 5.00
O=C(O)c1c(F)ccc2c1OB(O)[C@@H](NC(=O)C(NC(=O)N1CCN(C3CCN(Cc4ccc(O)cc4)CC3)C1=O)c1cc(F)c(O)c(O)c1Cl)C2 (single isomer, unassigned) | > 5.00
O=C(NCCCN1CCN(C(=O)NC(C(=O)N[C@H]2Cc3ccc(F)c(C(=O)O)c3OB2O)c2cc(F)c(O)c(O)c2Cl)C(=O)C1=O)c1ccncc1 (some centres unmarked) | 3.60 to 4.30
O=C(O)c1c(F)ccc2c1OB(O)[C@@H](NC(=O)[C@H](NC(=O)N1CCN(C3CCN(C(=O)c4cc(O)cc(F)c4)CC3)C1=O)c1cc(F)c(O)c(O)c1Cl)C2 (single isomer, unassigned) | > 5.00
O=C(O)c1c(F)ccc2c1OB(O)[C@@H](NC(=O)[C@@H](NC(=O)N1CCN(C3CCN(S(=O)(=O)c4ccc5[nH]nnc5c4)CC3)C1=O)c1cc(F)c(O)c(O)c1Cl)C2 (single isomer, unassigned) | > 5.00
Cc1cc(C(=O)NCCCN2CCN(C(=O)NC(C(=O)N[C@H]3Cc4ccc(F)c(C(=O)O)c4OB3O)c3cc(F)c(O)c(O)c3Cl)C(=O)C2=O)c(F)cn1 (some centres unmarked) | 4.30 to 5.00
O=C(NCCCN1CCN(C(=O)NC(C(=O)N[C@H]2Cc3ccc(F)c(C(=O)O)c3OB2O)c2cc(F)c(O)c(O)c2Cl)C(=O)C1=O)c1ccc(F)c(O)c1F (some centres unmarked) | > 5.00
NCc1ccc(C(=O)N2CCC(N3CCN(C(=O)NC(C(=O)N[C@H]4Cc5ccc(F)c(C(=O)O)c5OB4O)c4cc(F)c(O)c(O)c4Cl)C3=O)CC2)cc1O (single isomer, unassigned) | 4.30 to 5.00
O=C(NCCCN1CCN(C(=O)N[C@@H](C(=O)N[C@H]2Cc3ccc(F)c(C(=O)O)c3OB2O)c2cc(F)c(O)c(O)c2Cl)C1=O)c1ccccc1 | 4.30 to 5.00
O=C(O)c1c(F)ccc2c1OB(O)[C@@H](NC(=O)[C@H](NC(=O)N1CCN(C3CCN(C(=O)c4cc(O)ccc4F)CC3)C1=O)c1cc(F)c(O)c(O)c1Cl)C2 (single isomer, unassigned) | > 5.00

Attribution: patent US20240270762A1
